test system: ACE (off-target) relative to Pseudomonas aeruginosa PAO1 LasB; assay: Selectivity index, ratio of Ki for rabbit ACE to Ki for Pseudomonas aeruginosa PAO1 LasB; type: toxicity; conditions: read-out: Ratio Ki
observation_type: selectivity ratio

>  <smiles_repr>
O=C(O)CC1(C(=O)NCc2nc3ccccc3s2)Cc2ccccc2C1

>  <observation_type>
selectivity ratio

>  <experimental_result>
> 356

$$$$

Here is another compound to look at.
query: Reported selectivity ratio, compound O=C(O)CC1(C(=O)NCc2nc(-c3ccccc3)cs2)Cc2ccccc2C1 : ____
result: > 356

###

assay: Inhibition of Pseudomonas aeruginosa LasB using Abz-Ala-Gly-Leu-Ala-p-Nitro-Benzyl-Amide as substrate measured for every 60 sec for 30 mins by UV-fluorescence based assay
observation_type: pKi
pKi field: float, defined as -log10 of concentration (mol/L).

>  <compound>
O=C(O)CC1(C(=O)NCCc2cc3ccccc3s2)Cc2ccccc2C1

>  <observation_type>
pKi

>  <experimental_result>
5.31

$$$$

Here is another compound to look at.
query: Reported pKi, compound Cn1c(CNC(=O)C2(CC(=O)O)Cc3ccccc3C2)nc2ccccc21 : ____
result: 4.90

###

system: Pseudomonas aeruginosa PAO1; assay: Inhibition of Pseudomonas aeruginosa PAO1 LasB using ECR as substrate assessed as reduction in elastin hydrolysis at 50 uM incubated for 16 hrs by congo-red dye based spectrophotometry relative to control
observation_type: inhibition (%)
Answer in %, number only, no unit symbol.

// solved cases for inhibition follow
>  <smiles_repr>
O=C(O)CC1(C(=O)NCCc2cc3ccccc3o2)Cc2ccccc2C1

>  <measure_unit>
%

>  <inhibition>
25

$$$$
>  <smiles_repr>
O=C(O)CC1(C(=O)NCCc2cc3ccccc3[nH]2)Cc2ccccc2C1

>  <measure_unit>
%

>  <inhibition>
25

$$$$
>  <smiles_repr>
O=C(O)CC1(C(=O)NCc2c[nH]c3ccccc23)Cc2ccccc2C1

>  <measure_unit>
%

>  <inhibition>
35

$$$$
>  <smiles_repr>
C[C@@H](NC(=O)C1(CC(=O)O)Cc2ccccc2C1)c1cc2ccccc2o1

>  <measure_unit>
%

>  <inhibition>
44

$$$$

Here is another compound to look at.
query: Enter reported inhibition observed with Pseudomonas aeruginosa PAO1 for O=C(O)CC1(C(=O)NCc2cc3ccccc3o2)Cc2ccccc2C1
result: 54

###

In what follows, each item is paired with its IC50 for UniProt P45452.

>  <smiles_repr>
O=C(O)CC1(C(=O)NCc2nc3ccccc3s2)Cc2ccccc2C1

>  <target>
UniProt P45452

>  <IC50>
> 10 µM

$$$$

query: Reported IC50, molecule O=C(O)CC1(C(=O)NCc2nc(-c3ccccc3)cs2)Cc2ccccc2C1 : ____
result: > 10 µM

###

system: Pseudomonas aeruginosa PAO1; experiment: Inhibition of Pseudomonas aeruginosa PAO1 LasB using ECR as substrate assessed as reduction in elastin hydrolysis at 25 uM incubated for 16 hrs by congo-red dye based spectrophotometry relative to control
# inhibition binned as low band: < 20%; middle band: ≥ 20% and < 40%; high band: ≥ 40%

Worked set:
>  <smiles_repr>
O=C(O)CC1(C(=O)NCc2c[nH]c3ccccc23)Cc2ccccc2C1

>  <target>
Pseudomonas aeruginosa PAO1

>  <class>
middle band

$$$$
>  <smiles_repr>
O=C(O)CC1(C(=O)NCc2ccccc2)Cc2ccccc2C1

>  <target>
Pseudomonas aeruginosa PAO1

>  <class>
high band

$$$$
>  <smiles_repr>
O=C(O)CC1(C(=O)NCc2cc3ccccc3[nH]2)Cc2ccccc2C1

>  <target>
Pseudomonas aeruginosa PAO1

>  <class>
middle band

$$$$
>  <smiles_repr>
O=C(O)CC1(C(=O)NCCc2cc3ccccc3[nH]2)Cc2ccccc2C1

>  <target>
Pseudomonas aeruginosa PAO1

>  <class>
low band

$$$$
>  <smiles_repr>
O=C(O)CC1(C(=O)NCc2nc3ccccc3[nH]2)Cc2ccccc2C1

>  <target>
Pseudomonas aeruginosa PAO1

>  <class>
low band

$$$$

query: Tag the class for Cn1c(CNC(=O)C2(CC(=O)O)Cc3ccccc3C2)cc2ccccc21
result: high band

query: # iterate: O=C(O)CC1(C(=O)NCCc2cc3ccccc3s2)Cc2ccccc2C1
result: low band

query: # iterate: O=C(O)CC1(C(=O)NCc2cc3ccccc3o2)Cc2ccccc2C1
result: high band

query: # iterate: O=C(O)CC1(C(=O)NCCc2cc3ccccc3o2)Cc2ccccc2C1
result: low band

query: # iterate: C[C@H](NC(=O)C1(CC(=O)O)Cc2ccccc2C1)c1cc2ccccc2o1
result: middle band

query: # iterate: C[C@@H](NC(=O)C1(CC(=O)O)Cc2ccccc2C1)c1cc2ccccc2o1
result: middle band

query: # iterate: O=C(O)CC1(C(=O)NCCc2nc3ccccc3[nH]2)Cc2ccccc2C1
result: low band

query: # iterate: O=C(O)CC1(C(=O)NCc2cc3ccccc3s2)Cc2ccccc2C1
result: high band

query: # iterate: O=C(O)CC1(C(=O)NCc2nc3ccccc3s2)Cc2ccccc2C1
result: high band

###

# Ki per entry
Target: UniProt:P12822
Sequence (P12822 whole entry): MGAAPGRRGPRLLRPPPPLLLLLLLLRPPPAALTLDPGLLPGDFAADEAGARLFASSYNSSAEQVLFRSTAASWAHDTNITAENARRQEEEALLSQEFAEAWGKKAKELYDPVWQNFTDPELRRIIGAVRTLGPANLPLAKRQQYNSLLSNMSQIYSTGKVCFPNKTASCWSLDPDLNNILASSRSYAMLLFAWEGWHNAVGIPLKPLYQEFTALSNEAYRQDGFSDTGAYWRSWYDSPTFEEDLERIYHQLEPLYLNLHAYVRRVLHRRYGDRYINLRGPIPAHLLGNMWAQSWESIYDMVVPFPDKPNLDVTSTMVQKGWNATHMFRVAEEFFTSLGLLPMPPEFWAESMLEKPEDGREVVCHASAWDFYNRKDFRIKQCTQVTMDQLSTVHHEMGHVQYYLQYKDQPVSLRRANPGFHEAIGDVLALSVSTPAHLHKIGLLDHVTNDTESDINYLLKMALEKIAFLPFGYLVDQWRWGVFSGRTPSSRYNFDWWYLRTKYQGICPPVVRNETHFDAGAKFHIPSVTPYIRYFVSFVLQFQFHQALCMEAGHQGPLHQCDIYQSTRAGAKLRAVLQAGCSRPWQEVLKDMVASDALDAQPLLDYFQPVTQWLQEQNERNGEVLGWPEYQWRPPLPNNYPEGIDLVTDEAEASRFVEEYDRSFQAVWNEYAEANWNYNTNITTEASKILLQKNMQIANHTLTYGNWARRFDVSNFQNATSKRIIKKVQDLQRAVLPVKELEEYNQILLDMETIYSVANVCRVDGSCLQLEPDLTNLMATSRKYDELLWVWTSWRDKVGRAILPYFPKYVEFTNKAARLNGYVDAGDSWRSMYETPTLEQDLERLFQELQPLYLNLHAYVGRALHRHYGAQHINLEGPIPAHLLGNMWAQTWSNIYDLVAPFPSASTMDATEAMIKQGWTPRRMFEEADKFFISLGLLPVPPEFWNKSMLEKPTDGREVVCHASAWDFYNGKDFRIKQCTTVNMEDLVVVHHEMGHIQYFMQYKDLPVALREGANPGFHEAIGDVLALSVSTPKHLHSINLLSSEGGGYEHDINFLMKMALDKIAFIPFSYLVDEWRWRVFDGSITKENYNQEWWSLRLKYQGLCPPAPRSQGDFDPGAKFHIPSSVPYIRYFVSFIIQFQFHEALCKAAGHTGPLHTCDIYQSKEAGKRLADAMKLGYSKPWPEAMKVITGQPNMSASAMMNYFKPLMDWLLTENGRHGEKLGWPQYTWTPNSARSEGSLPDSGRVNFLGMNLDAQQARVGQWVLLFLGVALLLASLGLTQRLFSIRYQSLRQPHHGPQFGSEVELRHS

// solved cases for Ki follow
>  <smiles_repr>
O=C(O)CC1(C(=O)NCCc2cc3ccccc3s2)Cc2ccccc2C1

>  <Ki>
40.6 µM

$$$$
>  <smiles_repr>
C[C@H](NC(=O)C1(CC(=O)O)Cc2ccccc2C1)c1cc2ccccc2o1

>  <Ki>
> 57 µM

$$$$
>  <smiles_repr>
O=C(O)CC1(C(=O)NCc2ncc(-c3ccccc3)s2)Cc2ccccc2C1

>  <Ki>
> 57 µM

$$$$
>  <smiles_repr>
O=C(O)CC1(C(=O)NCc2nc3ccccc3[nH]2)Cc2ccccc2C1

>  <Ki>
> 57 µM

$$$$

query: Reported Ki, molecule Cn1c(CNC(=O)C2(CC(=O)O)Cc3ccccc3C2)cc2ccccc21 : ____
result: > 57 µM

###

target: 72 kDa type IV collagenase (Homo sapiens)
Sequence (P08253 whole entry): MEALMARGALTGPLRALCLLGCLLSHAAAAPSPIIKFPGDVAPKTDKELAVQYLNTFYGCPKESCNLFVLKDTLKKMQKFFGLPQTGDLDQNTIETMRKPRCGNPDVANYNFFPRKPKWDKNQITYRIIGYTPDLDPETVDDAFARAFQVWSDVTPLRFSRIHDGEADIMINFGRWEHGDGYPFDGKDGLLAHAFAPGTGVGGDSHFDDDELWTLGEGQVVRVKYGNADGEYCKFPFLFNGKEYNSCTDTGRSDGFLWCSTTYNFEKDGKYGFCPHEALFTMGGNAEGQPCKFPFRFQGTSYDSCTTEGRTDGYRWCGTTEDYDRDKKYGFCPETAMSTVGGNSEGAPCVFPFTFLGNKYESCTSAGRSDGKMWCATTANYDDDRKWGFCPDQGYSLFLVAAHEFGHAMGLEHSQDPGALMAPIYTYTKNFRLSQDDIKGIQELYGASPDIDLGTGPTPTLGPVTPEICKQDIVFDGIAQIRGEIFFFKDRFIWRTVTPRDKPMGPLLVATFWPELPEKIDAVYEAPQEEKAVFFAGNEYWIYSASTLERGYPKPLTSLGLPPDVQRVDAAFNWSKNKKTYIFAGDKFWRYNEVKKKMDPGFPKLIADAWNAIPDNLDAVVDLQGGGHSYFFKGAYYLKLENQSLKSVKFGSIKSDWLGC
pIC50: −log10 of the molar value.
observation_type: pIC50

query: Reported pIC50, molecule O=C(O)CC1(C(=O)NCc2nc3ccccc3s2)Cc2ccccc2C1 : ____
result: < 5.00

###

system: Pseudomonas aeruginosa PAO1; assay: Inhibition of Pseudomonas aeruginosa PAO1 LasB using ECR as substrate assessed as reduction in elastin hydrolysis at 50 uM incubated for 16 hrs by congo-red dye based spectrophotometry relative to control
Use criterion met when the recorded inhibition is no lower than 50%; use criterion not met when it is lower.

Worked set:
>  <compound>
Cc1ccc2oc(CNC(=O)CC3(C(=O)O)Cc4ccccc4C3)cc2c1

>  <class>
criterion not met

$$$$
>  <compound>
O=C(O)CC1(C(=O)NCc2ncc(-c3ccccc3)s2)Cc2ccccc2C1

>  <class>
criterion met

$$$$
>  <compound>
O=C(O)CC1(C(=O)NCc2cc3ccccc3s2)Cc2ccccc2C1

>  <class>
criterion met

$$$$
>  <compound>
Cn1cc(CNC(=O)C2(CC(=O)O)Cc3ccccc3C2)cn1

>  <class>
criterion not met

$$$$
>  <compound>
O=C(O)CC1(C(=O)NCc2nc3ccccc3[nH]2)Cc2ccccc2C1

>  <class>
criterion not met

$$$$

query: Kindly determine if inhibition recorded for C[C@H](NC(=O)C1(CC(=O)O)Cc2ccccc2C1)c1cc2ccccc2o1 is above or exactly 50%.
result: criterion not met

query: # iterate: Cn1c(CNC(=O)C2(CC(=O)O)Cc3ccccc3C2)cc2ccccc21
result: criterion met

query: # iterate: CC(NC(=O)CC1(C(=O)O)Cc2ccccc2C1)c1cc2ccccc2o1 (racemic)
result: criterion not met

query: # iterate: O=C(O)CC1(C(=O)NCc2ccc3ccccc3n2)Cc2ccccc2C1
result: criterion met

query: # iterate: O=C(O)CC1(C(=O)NCCc2cc3ccccc3s2)Cc2ccccc2C1
result: criterion not met

query: # iterate: O=C(O)CC1(C(=O)NCc2nc3ccccc3s2)Cc2ccccc2C1
result: criterion met
